Recorded O2 permeability for the following compounds
Respond with the bare value in Barrer.

*Oc1ccc(S(=O)(=O)c2ccc(Oc3c(C)cc(-c4cc(C)c(*)c(C)c4C)c(C)c3C)cc2)cc1 (repeat unit): 6
*CC(*)OCC1CC2CC1C1CCCC21 (repeat unit): 0.81

Would you mind telling me what O2 permeability value was observed for *c1ccc(Oc2ccc(C(c3ccc(Oc4ccc(N5C(=O)c6ccc(-c7ccc8c(c7)C(=O)N(*)C8=O)cc6C5=O)cc4C(F)(F)F)cc3)(C(F)(F)F)C(F)(F)F)cc2)c(C(F)(F)F)c1 (repeat unit) ?
3.11

Would you mind telling me what O2 permeability value was observed for *c1ccc2c(c1C)N1Cc3ccc(N4C(=O)c5ccc(C(c6ccc7c(c6)C(=O)N(*)C7=O)(C(F)(F)F)C(F)(F)F)cc5C4=O)c(C)c3N(C2)C1 (repeat unit) ?
50

Would you mind telling me what O2 permeability value was observed for *c1ccc(Oc2ccc(-n3c(=O)c4cc5sc6cc7c(=O)n(*)c(=O)c7cc6sc5cc4c3=O)cc2)cc1 (repeat unit) ?
0.74

Would you mind telling me what O2 permeability value was observed for *c1ccc(-c2ccc(N3C(=O)c4ccc([Si](C)(C)c5ccc6c(c5)C(=O)N(*)C6=O)cc4C3=O)c(OC)c2)cc1OC (repeat unit) ?
0.53
